The measurements presented in this section are drawn from patent US6017919A.

Entries annotated with measured C/S
target: cannabinoid peripheral type (CB2) receptor (Rattus norvegicus); construct: rat cerebellar membrane fraction and spleen cells were respectively used; from tissue; host or cells: rat spleen cells (male SD rats, 7-9 weeks old); test: Binding assay, cannabinoid peripheral type receptor (CB2), rat spleen cells, [3H]Win55212-2; details: ratio of Ki central receptor (C) to Ki peripheral receptor (S)
Sequence (Q9QZN9 whole entry): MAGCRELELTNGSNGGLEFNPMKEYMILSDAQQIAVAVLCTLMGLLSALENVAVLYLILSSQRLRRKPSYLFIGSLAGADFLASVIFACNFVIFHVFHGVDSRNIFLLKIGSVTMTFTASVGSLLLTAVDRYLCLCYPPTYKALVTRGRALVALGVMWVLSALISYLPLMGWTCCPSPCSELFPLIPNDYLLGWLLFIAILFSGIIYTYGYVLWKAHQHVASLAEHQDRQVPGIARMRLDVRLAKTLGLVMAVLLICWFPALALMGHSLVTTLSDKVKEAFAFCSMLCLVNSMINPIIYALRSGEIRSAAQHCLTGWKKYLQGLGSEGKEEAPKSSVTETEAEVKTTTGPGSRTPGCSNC

INSERT INTO measurements (molecule, reported) VALUES
  ('CCCCCOc1c(OC)ccc2c1CN(CCc1ccc(O)cc1)C2=O [Example 7-5]', '> 227');

Given CCCCCOc1c(OC)ccc2c1CCN(CCc1ccc(O)cc1)C2=O [Example 7-24] , state its recorded C/S. > 1389

Field request: C/S | item: CCCCCOc1ccc(C(=O)NCCc2ccc(O)cc2)cc1OCCCCC [Example 2-3] > 8250

What C/S value was documented for this molecule, CCCCCOc1c(OC)ccc2c(=O)n(CCc3ccc(N)cc3)c(=O)[nH]c12 [Example 7-40] ? > 30

Returns the measured C/S for the input molecule. Input: CCCCCOc1cc(C(=O)NCCc2ccncc2)ccc1OC [Example 2-16] > 59

Quick one: C/S of CCCCCOc1cc(C(=O)NCCc2ccc(O)cc2)ccc1OCC [Example 2-2] ? 1000
